In this section, each of the binders is paired with its reported pKd.
- Target: SARS-Cov-2 Omicron变异株的生物素化RBD(South Africa/CERI-KRISP-K032195/2021) (SARS-CoV-2 Omicron variant, UniProt P0DTC2 319-541)
pKd: −log10 of the molar value.

Binder: SWB8 (antibody, V domains shown) VH: EVQLVESGGGLVQPGGSLRLSCAASGFTIRSYEMNWVRQAPGKGLEWVSYISSSGTTIYYADSVKGRFTISRDTAKNSLYLQMNSLRAEDTAVYYCAREGDYPSAEYFHHWGQGTLVTVSS VL: DIVMTQSSVSLAVSLGERATINCKSSQSVLYSSTNRSYLAWYQQKPGQSPKLLIYWASTRESGVPDRFSGSGSGTDFTLTISSLQAEDVAVYYCQQYYSTRRTFGQGTKLEIKR
pKd: > 12.00

Binder: LHD2 (antibody, V domains shown) VH: QMQLVQSGPEVKKPGTSLKVSCKASGFAFTTSAVQWVRQARGQPLEWIGWIAVGSGKADYAQRFQERVTISRDMSTTTAYMELSSLSSEDTAVYFCAAPFCTRTTCLDGFDIWGQGTMVTVSS VL: EIVLTQSPVTLSLSPGERATLSCRAGQSVSRNYLGWYQQKPGQAPRLLIYAASSRATGIPDRFSGRGSGTDFTLTISRLEPEDFAVYYCQQYGTSPWTFGQGTKVEIKV
pKd: > 12.00

Binder: LHD7 (antibody, V domains shown) VH: QMQLVQSGPEVKKPGTSVKVSCKASGFTFITAAVQWVRQARGQRLEWIGWIAVGSGKTDYAQKFQERVTITRDISTSTAYMEVKSLRSEDTALYYCAAPQCNRTTCLDGFDIWGQGTKVIVSS VL: EIVLTQSPVTLSLSPGERATLSCRASQSVSRSYLGWYQQKPGQAPRLLIYGASSRATGIPDRFRGSGSGTDFTLTISRLEPEDFAVYYCQQYGTSPWTFGQGTKVEIKV
pKd: > 12.00

Binder: LHC11 (antibody, V domains shown) VH: EVQLVESGGGLIQPGGSLKLSCAATEIIVSRNYMTWVRQAPGKGLEWVSIIYPGGSSFYAESVKGRFTISRDEPKNTLFLQMNSLRVEDTAVYYCARGYGDYYFDFWGQGTLVTVSS VL: EIVLTQSPVTLSLSPGERATLSCRASQSVSSSYLAWYQQKPGQAPRLLIYGASSRATGIPDRFSGSGSGTDFTLTISRLEPEDFAVYYCQQWLTFGGGTKVEIKV
pKd: 9.02

The origin of these recorded values is patent CN114426577A.
